Source of measurements: patent US20250059174A1

# reported pIC50; entries follow
Target: Recombinant human c-KIT kinase (Homo sapiens (Human), UniProt P10721)
Sequence (P10721 26-976): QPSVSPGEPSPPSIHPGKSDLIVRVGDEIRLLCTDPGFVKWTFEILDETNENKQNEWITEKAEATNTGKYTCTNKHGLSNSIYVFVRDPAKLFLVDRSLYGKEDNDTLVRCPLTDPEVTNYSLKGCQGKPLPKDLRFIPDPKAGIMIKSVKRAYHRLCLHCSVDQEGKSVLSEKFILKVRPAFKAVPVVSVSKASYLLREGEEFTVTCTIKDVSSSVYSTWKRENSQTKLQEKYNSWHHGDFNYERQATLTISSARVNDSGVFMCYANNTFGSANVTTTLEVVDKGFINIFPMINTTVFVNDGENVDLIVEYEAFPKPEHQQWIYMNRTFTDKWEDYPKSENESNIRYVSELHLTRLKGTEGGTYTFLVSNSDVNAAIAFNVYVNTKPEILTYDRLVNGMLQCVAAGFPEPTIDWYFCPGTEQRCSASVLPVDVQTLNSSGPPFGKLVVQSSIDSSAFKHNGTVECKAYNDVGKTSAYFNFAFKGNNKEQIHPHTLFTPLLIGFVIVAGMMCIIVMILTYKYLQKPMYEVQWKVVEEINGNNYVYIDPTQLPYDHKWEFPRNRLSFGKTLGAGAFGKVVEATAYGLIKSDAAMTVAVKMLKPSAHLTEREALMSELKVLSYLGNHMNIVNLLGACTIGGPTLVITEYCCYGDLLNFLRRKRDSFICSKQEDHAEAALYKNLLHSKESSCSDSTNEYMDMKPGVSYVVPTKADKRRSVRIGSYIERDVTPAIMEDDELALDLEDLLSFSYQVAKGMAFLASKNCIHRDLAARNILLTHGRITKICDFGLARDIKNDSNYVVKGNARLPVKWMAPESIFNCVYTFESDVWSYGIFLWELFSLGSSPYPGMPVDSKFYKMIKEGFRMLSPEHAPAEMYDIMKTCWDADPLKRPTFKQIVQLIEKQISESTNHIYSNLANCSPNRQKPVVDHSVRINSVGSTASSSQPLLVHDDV
Test: c-KIT kinase chemiluminescence assay (ADP-Glo)
Settings: ATP 50 μM
pIC50: −log10 of the molar value.

A selection of reference data follows.
molecule	system	pIC50
Cc1ccc(-c2noc([C@H]3C[C@@H]3F)n2)cc1NC(=O)c1cnc(-c2cccc3cc[nH]c23)o1 [Example 308-41]	Recombinant human c-KIT kinase (Homo sapiens (Human), UniProt P10721)	6.00 to 7.00
Cc1ccc(-c2noc([C@H]3C[C@@H]3F)n2)cc1NC(=O)c1cnn2ccc(-c3cncnc3)cc12 [Example 154]	Recombinant human c-KIT kinase (Homo sapiens (Human), UniProt P10721)	> 7.00
Cc1ccc(-c2noc([C@H]3C[C@@H]3F)n2)cc1NC(=O)c1cnn2ccc(-c3cn(C(F)F)nn3)cc12 [Example 111]	Recombinant human c-KIT kinase (Homo sapiens (Human), UniProt P10721)	6.00 to 7.00
Cc1ccc(-c2noc([C@H]3C[C@@H]3F)n2)cc1NC(=O)c1cnn2ccc(-c3cc(C(F)(F)F)nn3C(C)C)cc12 [Example 171-23]	Recombinant human c-KIT kinase (Homo sapiens (Human), UniProt P10721)	< 6.00
Cc1ncc(-c2nnnn2C)cc1NC(=O)c1cnn2ccc(N3CC4(C3)CC(O)(C(F)F)C4)cc12 [Example 312-1]	Recombinant human c-KIT kinase (Homo sapiens (Human), UniProt P10721)	< 6.00

Sample Cc1ncc(-c2noc([C@H]3C[C@@](C)(O)C3)n2)cc1NC(=O)c1cnn2ccc(N3CC4(C3)CC(O)(C(F)F)C4)cc12 [Example 281-36] — what was its pIC50?
> 7.00

Sample Cc1ncc(-c2noc(C3CN(C(=O)C4CC4)C3)n2)cc1NC(=O)c1cnn2ccc(N3CC4(COC4)C3)cc12 [Example 281-87] — what was its pIC50?
< 6.00

Sample Cc1ccc(-c2noc([C@H]3C[C@@H]3F)n2)cc1NC(=O)c1cnc(-c2ccc(NC(=O)OC(C)(C)C)nc2)o1 [Example 298] — what was its pIC50?
< 6.00

----------
Molecular target: Recombinant human c-KIT kinase (Homo sapiens (Human), UniProt P10721)
Experiment: c-KIT kinase chemiluminescence assay (ADP-Glo)
Conditions: ATP 50 μM
pIC50: −log10 of the molar value.
# reported pIC50; entries follow

smiles notation	system	parameter	observed measurement
Cc1ncc(-c2noc([C@H]3CN(C(=O)C4(F)CC4)[C@@H]3C)n2)cc1NC(=O)c1cnn2ccc(N3CC4(C3)CC(O)(C(F)F)C4)cc12	Recombinant human c-KIT kinase (Homo sapiens (Human), UniProt P10721)	pIC50	6.00 to 7.00
Cc1ccc(-c2noc([C@H]3C[C@@H]3F)n2)cc1NC(=O)c1cnn2ccc(N3CC[C@H](N(C)C(=O)OC(C)(C)C)C3)cc12	Recombinant human c-KIT kinase (Homo sapiens (Human), UniProt P10721)	pIC50	> 7.00
Cc1ccc(-c2noc(C34CC(OC(F)F)(C3)C4)n2)cc1NC(=O)c1cnn2ccc(N3CC4(COC4)C3)cc12	Recombinant human c-KIT kinase (Homo sapiens (Human), UniProt P10721)	pIC50	> 7.00
Cc1ccc(-c2noc([C@H]3C[C@@H]3F)n2)cc1NC(=O)c1cnn2ccc(N3CC[C@@H](N)C3)cc12	Recombinant human c-KIT kinase (Homo sapiens (Human), UniProt P10721)	pIC50	6.00 to 7.00

Sample Cc1ccc(-c2ccc(C3CC3)nn2)cc1NC(=O)c1cnn2ccc(N3CC4(COC4)C3)cc12 — what was its pIC50?
> 7.00

Sample Cc1ncc(-c2noc([C@H]3CN(CC(F)(F)F)[C@@H]3C)n2)cc1NC(=O)c1cnn2ccc(N3CC4(C3)CC(O)(C(F)F)C4)cc12 — what was its pIC50?
6.00 to 7.00

Sample Cc1ccc(-c2ncc(C(F)(F)F)cn2)cc1NC(=O)c1cnn2ccc(N3CC4(COC4)C3)cc12 — what was its pIC50?
6.00 to 7.00
